Source: PubChem BioAssay AID248

test system: L1210 leukemia ip in BDF1 mice, survival T/C; test: NCI In Vivo Anticancer Drug Screen. Data for tumor model L1210 Leukemia (intraperitoneal) in B6D2F1 (BDF1) mice; conditions: endpoint: mean survival time; dose: 400.0 mg/kg/injection; schedule: Q01DX001 (ip); vehicle: saline; higher = longer survival
Inconclusive results and toxic doses are left out.
test readout: T/C

Solved entries:
> print(dat)
                           molecule  test.readout   reported.result
1  CC(=O)CCCOc1ccc([N+](=O)[O-])cc1           T/C  101 % of control
2                       CCCCOC(N)=O           T/C   98 % of control

Dear colleague, could you send me T/C for each of the items below? Thanks.
1. O=C(O)c1ccccc1-c1c2ccc(=O)c(Br)c-2oc2c(Br)c(O)ccc12
2. CCN(CC)C(=O)c1cccc(N)c1
3. OCC(O)C(O)C(O)C(O)C(c1ccc(F)cc1)c1ccc(F)cc1 (stereo not given)

A.
102 % of control
95 % of control
93 % of control

====

system: L1210 leukemia ip in BDF1 mice, survival T/C; experiment: NCI In Vivo Anticancer Drug Screen. Data for tumor model L1210 Leukemia (intraperitoneal) in B6D2F1 (BDF1) mice; details: endpoint: mean survival time; dose: 200.0 mg/kg/injection; schedule: Q04DX003 (ip); vehicle: saline with Tween-80; higher = longer survival
Inconclusive results and toxic doses are left out.
Please go through the items and note down their T/C.

Solved entries:
> print(dat)
                                   compound   reported.result
1                   Cc1cccc(C)c1NC(=O)C(C)C   98 % of control
2  O=C(O)C1Cc2c([nH]c3ccccc23)C(c2ccccc2)N1 (stereo not given)  102 % of control
3  O=C(CCNC(=O)OCc1ccccc1)NC(Cc1ccccc1)C(=O)OCc1ccccc1 (stereo not given)   97 % of control
4                  COc1cc(/C=C/C(C)=O)ccc1O   98 % of control
5       CC/C(=C/c1cccc(OC)c1OC)[N+](=O)[O-]   90 % of control

Dear colleague, could you send me T/C for each of the items below? Thanks.
1. C(=C\c1ccccc1)/C=N/N=C/C=C/c1ccccc1
2. O=C(N/N=C(\C=N\NC(=O)c1ccccc1)CC(O)CO)c1ccccc1 (stereo not given)
3. O=[N+]([O-])c1ccc2c(c1)COCO2
4. CCOC(=O)/C(Cc1cnc2ccccc2n1)=N\O
5. CCOC(=O)C(=O)C1CCCC1=O (stereo not given)

A.
89 % of control
93 % of control
95 % of control
100 % of control
100 % of control

Dear colleague, could you send me T/C for each of the items below? Thanks.
1. O=C1c2ccccc2C(=O)N1Cc1ccccc1
2. CCCCN(CCCC)CC(O)c1cc(OC)c2cc(Cl)cc(Cl)c2n1 (stereo not given)

A.
1. 100 % of control
2. 91 % of control

====

System: L1210 leukemia ip in BDF1 mice, survival T/C
Assay: NCI In Vivo Anticancer Drug Screen. Data for tumor model L1210 Leukemia (intraperitoneal) in B6D2F1 (BDF1) mice
Settings: endpoint: mean survival time; dose: 100.0 mg/kg/injection; schedule: Q01DX009 (ip); vehicle: acetone; higher = longer survival
Method: The antitumor activity of compounds was measured in mice bearing transplantable tumors. Survival or tumor size were measured and the results are expressed as the measurement made in the treated group (T) divided by the measurement made in the vehicle treated control group (C). The tumor model used in this assay is L1210 Leukemia (intraperitoneal) in B6D2F1 (BDF1) mice
Toxic doses and inconclusive results are not listed.
test readout: T/C

> print(dat)
                                   molecule                         system.under.test  reported.result
1  O=[N+]([O-])c1cc(Cl)ccc1S(=O)(=O)CC(Cl)c1ccccc1 (stereo not given)  L1210 leukemia ip in BDF1 mice, survival T/C  98 % of control

Dear colleague, could you send me T/C for each of the items below? Thanks.
1. COC(=O)C1=C(C(=O)OC)C2(OC(C)=O)C=C(OC(C)=O)C1C(C)(C)C2 (stereo not given)
2. CC(=O)OCCNc1ccc([N+](=O)[O-])cc1[N+](=O)[O-]

A.
1. 93 % of control
2. 109 % of control

Dear colleague, could you send me T/C for each of the items below? Thanks.
1. Fc1cc(F)c(CCl)c(F)c1
2. CCOC(=O)C(C)C(=O)c1ccccc1 (stereo not given)

A.
["94 % of control", "96 % of control"]

====

Please go through the items and note down their T/C.
System: L1210 leukemia ip in BDF1 mice, survival T/C
Assay: NCI In Vivo Anticancer Drug Screen. Data for tumor model L1210 Leukemia (intraperitoneal) in B6D2F1 (BDF1) mice
Conditions: endpoint: mean survival time; dose: 400.0 mg/kg/injection; schedule: Q01DX009 (ip); vehicle: Klucel (hydroxypropylcellulose) (HPC); higher = longer survival
Method: The antitumor activity of compounds was measured in mice bearing transplantable tumors. Survival or tumor size were measured and the results are expressed as the measurement made in the treated group (T) divided by the measurement made in the vehicle treated control group (C). The tumor model used in this assay is L1210 Leukemia (intraperitoneal) in B6D2F1 (BDF1) mice
Toxic doses and inconclusive results are not listed.

Solved entries:
> print(dat)
                              line.notation                         system.under.test  reported.result
1            CC(C)(c1ccccc1)C(C)(C)c1ccccc1  L1210 leukemia ip in BDF1 mice, survival T/C  89 % of control
2  O=C(c1ccccc1)c1c2ccccc2c(C(=O)c2ccccc2)c2ccccc12  L1210 leukemia ip in BDF1 mice, survival T/C  97 % of control
3              Cc1cc(C)c2c(c1C)OC(C)(C)C=C2  L1210 leukemia ip in BDF1 mice, survival T/C  97 % of control

Dear colleague, could you send me T/C for each of the items below? Thanks.
1. O=C(Nc1cccc([N+](=O)[O-])c1)Nc1ccccc1F
2. O=C1N(CCCl)CCN1c1ccccc1
3. O=[N+]([O-])c1ccc(NC(=S)NS(=O)(=O)c2ccccc2)c(Cl)c1
4. COC1=C(NCc2ccccc2)C(=O)C(OC)=C(NCc2ccccc2)C1=O
5. COC(=O)C/C(=N\NC(=O)c1ccccc1)C(=O)OC

A.
["101 % of control", "106 % of control", "88 % of control", "92 % of control", "93 % of control"]

====

tested on: L1210 leukemia ip in BDF1 mice, survival T/C; test: NCI In Vivo Anticancer Drug Screen. Data for tumor model L1210 Leukemia (intraperitoneal) in B6D2F1 (BDF1) mice; conditions: endpoint: mean survival time; dose: 200.0 mg/kg/injection; schedule: Q04DX002 (ip); vehicle: Klucel (hydroxypropylcellulose) (HPC); higher = longer survival
Toxic doses and inconclusive results are not listed.
test readout: T/C

> print(dat)
                                   compound                         system.under.test  reported.result
1  CC1CCCCN1Cc1ccccc1COC(=O)c1ccc(Br)cc1 (stereo not drawn)  L1210 leukemia ip in BDF1 mice, survival T/C  92 % of control

Dear colleague, could you send me T/C for each of the items below? Thanks.
1. O=S(=O)(CCS(=O)(=O)c1ccccc1)c1ccccc1
2. CC(=O)OCCn1c([N+](=O)[O-])cnc1/C=[N+](\[O-])C1CCCCC1
3. COC(=O)C(C)NC(=O)C(COC1OC(COC(C)=O)C(OC(C)=O)C(OC(C)=O)C1NC(C)=O)NC(=O)OCc1ccccc1 (stereo not drawn)

A.
1: 92 % of control; 2: 100 % of control; 3: 98 % of control

Dear colleague, could you send me T/C for each of the items below? Thanks.
1. CC(=O)OC1CCC2(C)C(=CC=C3C2CCC2(C)C(C(C)=O)CCC32)C1 (stereo not drawn)
2. COc1cc(OC)c(NC(=O)C(Cl)(Cl)Cl)cc1Cl

A.
1. 110 % of control
2. 95 % of control

Dear colleague, could you send me T/C for each of the items below? Thanks.
1. O=C(Nc1ccc(Br)cc1)Oc1ccccc1C(=O)OCc1ccccc1
2. CCCC(=O)N1CCCCC1C (stereo not drawn)
3. C1=C(c2ccccc2)N(Cc2ccccc2)C(c2ccccc2)=CN1Cc1ccccc1
4. CC(C)(C)C(=O)CC(=O)C(C)(C)C.CC(C)(C)C(=O)CC(=O)C(C)(C)C.CC(C)(C)C(=O)CC(=O)C(C)(C)C.[Yb]
5. COC1OC2COC(C2OS(=O)(=O)c2ccc(C)cc2)C1OS(=O)(=O)c1ccc(C)cc1 (stereo not drawn)

A.
1. 87 % of control
2. 89 % of control
3. 96 % of control
4. 107 % of control
5. 98 % of control

Dear colleague, could you send me T/C for each of the items below? Thanks.
1. O=C(O)c1cc(I)cc(I)c1I
2. CCOP(=O)(OCC)Oc1c(Cl)c(Cl)c(Cl)c(Cl)c1Cl
3. CC1(C)C(=O)C2CCC1C2 (stereo not drawn)
4. Cn1c(Cl)c(C=O)c2ccccc21
5. O=C1CCS(=O)O1 (stereo not drawn)
6. CCn1c(C)nc2cc(N=Cc3ccc(N(CCCl)CCCl)cc3F)ccc21
7. CN(CCNC(=O)C1C(c2ccccc2)C1c1ccccc1)C(=O)C1C(c2ccccc2)C1c1ccccc1 (stereo not drawn)
8. CC(C)=C1N=C(c2ccccc2)OC1=O

A.
1: 88 % of control; 2: 100 % of control; 3: 87 % of control; 4: 97 % of control; 5: 95 % of control; 6: 98 % of control; 7: 89 % of control; 8: 111 % of control
